Measured target mRNA inhibition, listed per entry.
Molecular target: MALAT1
Conditions: ASO, A431, 0.005 µM
After the bases stand the sugars from the 5' end (letter, count) and the backbone: PS all phosphorothioate, else s phosphorothioate and o phosphodiester by linkage. Methylation of C is not given here. k = constrained ethyl (cEt); d = 2'-deoxy (DNA)
Quantity measured: target mRNA inhibition (%)

CTAAGATTGTAAGCAT (sugars k3 d10 k3, PS); 28
CTTGACCTTAGGATAA (sugars k3 d10 k3, PS); 44
AGAACTGCTCTAGTTT (sugars k3 d10 k3, PS); -6
ATTCTAATAGCAGCGG (sugars k3 d10 k3, PS); 32
CGAAGAGATACCTGTC (sugars k3 d10 k3, PS); 23
GTCTGAGGCAAACGAA (sugars k3 d10 k3, PS); 29
ATAATAGAGCTACTTA (sugars k3 d10 k3, PS); 19
CTAAGCAATATCTTAG (sugars k3 d10 k3, PS); 15
CCGCTAAGATGCTAGC (sugars k3 d10 k3, PS); 20
CCACCAAAGACCTCGA (sugars k3 d10 k3, PS); 27
TACTTGTCTTAGCTTG (sugars k3 d10 k3, PS); 51
CACTCTGATCTGCGGC (sugars k3 d10 k3, PS); -28
ATTCGATCACCTTCCG (sugars k3 d10 k3, PS); 19
CAGTAGGGCTTCTCAA (sugars k3 d10 k3, PS); 10
TGGAAAGCGAGTTCAA (sugars k3 d10 k3, PS); -4
TCGCTTTTATTCTGCT (sugars k3 d10 k3, PS); 22
GTTAAGTTTTCAGCAG (sugars k3 d10 k3, PS); 17
GGTTTCCTCAAGCTCC (sugars k3 d10 k3, PS); 34
GCCTTGCAGGGACGGT (sugars k3 d10 k3, PS); -10
TGCACTAAAGATCACT (sugars k3 d10 k3, PS); 37
CAATCCTGAAATCCCC (sugars k3 d10 k3, PS); 16
GCCATGGTTGATATTT (sugars k3 d10 k3, PS); 9
TGGGAGTTACTTGCCA (sugars k3 d10 k3, PS); 19
CGCTTTTATTCTGCTT (sugars k3 d10 k3, PS); 6
AGCAGAAGCCCCTGCG (sugars k3 d10 k3, PS); -1
GTAGGTATAGTTTACC (sugars k3 d10 k3, PS); 39
AGCAGCGGGATCAGAA (sugars k3 d10 k3, PS); 19
TTAATGTCAGCCCAGT (sugars k3 d10 k3, PS); 37
ATAGTTCAACCCACCA (sugars k3 d10 k3, PS); 21
TCTGGAAAAGCTAGGG (sugars k3 d10 k3, PS); -21
GAACCGGAGCAGGAAG (sugars k3 d10 k3, PS); 28
CGCACGGAAATTTTTC (sugars k3 d10 k3, PS); -17
GAATGTTTCTTGTCAC (sugars k3 d10 k3, PS); 43
CTGTTAAGACCATCCC (sugars k3 d10 k3, PS); 46
CGTAACAGGCCACTGC (sugars k3 d10 k3, PS); 2

meta.source: the OligoGym collection
